- SYSTEM_TESTED: Dihydrofolate reductase (Lactobacillus casei)
- Sequence (P00381 whole entry): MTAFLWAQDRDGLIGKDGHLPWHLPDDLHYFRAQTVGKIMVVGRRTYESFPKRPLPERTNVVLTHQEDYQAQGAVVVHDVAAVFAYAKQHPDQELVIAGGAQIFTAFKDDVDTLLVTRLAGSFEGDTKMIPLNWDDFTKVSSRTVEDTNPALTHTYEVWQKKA
The entries below come with measured IC50 values attached.

# ENTRY_SMILES, QUALIFIER_OPERATOR, IC50, nM
rows = [
    ("Nc1nc(N)c2c(CNc3ccc(C(=O)N[C@@H](CCC(=O)O)C(=O)O)cc3)coc2n1", "=", 560),
    ("Nc1nc(N)c2c(CNCc3ccc(C(=O)N[C@@H](CCC(=O)O)C(=O)O)cc3)coc2n1", ">", 200000),
]

* * *

// each record: one item and its pIC50 for Thymidylate synthase (Lactobacillus casei, UniProt P00469)
pIC50: −log10 of the molar value.

# ENTRY_SMILES, SYSTEM_TESTED, pIC50
rows = [
    ("Nc1nc(N)c2c(CCc3ccc(C(=O)N[C@@H](CCC(=O)O)C(=O)O)cc3)coc2n1", "Thymidylate synthase (Lactobacillus casei, UniProt P00469)", 3.70),
    ("Nc1nc(N)c2c(CNc3ccc(C(=O)N[C@@H](CCC(=O)O)C(=O)O)cc3)coc2n1", "Thymidylate synthase (Lactobacillus casei, UniProt P00469)", "< 3.70"),
    ("Nc1nc(N)c2c(CNCc3ccc(C(=O)N[C@@H](CCC(=O)O)C(=O)O)cc3)coc2n1", "Thymidylate synthase (Lactobacillus casei, UniProt P00469)", "< 3.70"),
]

* * *

- Tested on: CCRF-CEM
- METHOD_SUMMARY: he compound was tested for Growth inhibition of the Human T-lymphoblastic Leukemia cell line CCRF-CEM
- Assay type: functional, cell-based

# ENTRY_SMILES, EC50 / µM
data = [
    ("Nc1nc(N)c2c(CNCc3ccc(C(=O)N[C@@H](CCC(=O)O)C(=O)O)cc3)coc2n1", 48),
]

* * *

- SYSTEM_TESTED: Dihydrofolate reductase (Homo sapiens)
- Sequence (P00374 whole entry): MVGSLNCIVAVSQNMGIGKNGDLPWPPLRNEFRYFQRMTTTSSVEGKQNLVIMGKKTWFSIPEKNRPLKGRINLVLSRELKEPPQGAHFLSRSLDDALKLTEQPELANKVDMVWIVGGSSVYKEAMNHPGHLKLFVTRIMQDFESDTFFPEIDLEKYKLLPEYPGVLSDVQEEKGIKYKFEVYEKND
- METHOD_SUMMARY: Inhibitory concentration against recombinant human DHFR(Dihydro folate reductase).
pIC50: −log10 of the molar value.

# ENTRY_SMILES, QUALIFIER_OPERATOR, pIC50
data = [
    ("Nc1nc(N)c2c(CNc3ccc(C(=O)N[C@@H](CCC(=O)O)C(=O)O)cc3)coc2n1", "=", 6.35),
    ("Nc1nc(N)c2c(CNCc3ccc(C(=O)N[C@@H](CCC(=O)O)C(=O)O)cc3)coc2n1", "<", 3.70),
]

Taken from ChEMBL document CHEMBL1128558.
